- Test system: barnyardgrass (Echinochloa crus-galli)
- Assay summary: Test A postemergence, barnyardgrass
- Assay type: in vivo
- Condition set: Postemergence, 500 g ai/ha; visual injury vs untreated controls after approx. 10 days; 0 to 100 scale (0 no effect, 100 complete control)
Reported Barnyardgrass plant response rating values follow for various compounds

In the examples that follow, each entry is paired with its recorded Barnyardgrass plant response rating.
- Compound: "COC1(OC)CCN(C(=O)c2cc(NS(=O)(=O)C(F)(F)F)c(C)cc2C)CC1 [Compound 101]"
  Property label: "Barnyardgrass plant response rating"
  Value: 90
- Compound: "CCCn1nccc(-c2cc(NS(=O)(=O)C(F)(F)F)c(C)cc2C)c1=O [Compound 58]"
  Property label: "Barnyardgrass plant response rating"
  Value: 90
- Compound: "Cc1cc(C)c(C2=NOC3CCCC23)cc1NS(=O)(=O)C(F)(F)F (centres unmarked) [Compound 166]"
  Property label: "Barnyardgrass plant response rating"
  Value: 90
- Compound: "Cc1cc(Cl)c(C2=NOC(C)(C)C2)cc1N(S(=O)(=O)C(F)(F)F)S(=O)(=O)C(F)(F)F [Compound 184]"
  Property label: "Barnyardgrass plant response rating"
  Value: 50
- Compound: "Cc1cc(C)c(-c2cc(C(F)(F)F)nn(C)c2=O)cc1NS(=O)(=O)C(F)(F)F [Compound 71]"
  Property label: "Barnyardgrass plant response rating"
  Value: 80
- Compound: "Cc1cc(C(F)(F)F)c(NS(=O)(=O)C(F)(F)F)cc1C(=O)N(C)C [Compound 132]"
  Property label: "Barnyardgrass plant response rating"
  Value: 40
- Compound: "Cc1cc(C)c(N(S(=O)(=O)C(F)(F)F)S(=O)(=O)C(F)(F)F)cc1C1=NOC2(CCSCC2)C1 [Compound 114]"
  Property label: "Barnyardgrass plant response rating"
  Value: 70

Note: attention shifts to another entry.
// Barnyardgrass plant response rating value for CC(=O)OCN(c1cc(C2=NO[C@@H]3CCC[C@H]23)c(C)cc1C)S(=O)(=O)C(F)(F)F (relative stereo) [Compound 102] : 90
